tested.system: CYP2A6 (Homo sapiens)
Sequence (P11509 whole entry): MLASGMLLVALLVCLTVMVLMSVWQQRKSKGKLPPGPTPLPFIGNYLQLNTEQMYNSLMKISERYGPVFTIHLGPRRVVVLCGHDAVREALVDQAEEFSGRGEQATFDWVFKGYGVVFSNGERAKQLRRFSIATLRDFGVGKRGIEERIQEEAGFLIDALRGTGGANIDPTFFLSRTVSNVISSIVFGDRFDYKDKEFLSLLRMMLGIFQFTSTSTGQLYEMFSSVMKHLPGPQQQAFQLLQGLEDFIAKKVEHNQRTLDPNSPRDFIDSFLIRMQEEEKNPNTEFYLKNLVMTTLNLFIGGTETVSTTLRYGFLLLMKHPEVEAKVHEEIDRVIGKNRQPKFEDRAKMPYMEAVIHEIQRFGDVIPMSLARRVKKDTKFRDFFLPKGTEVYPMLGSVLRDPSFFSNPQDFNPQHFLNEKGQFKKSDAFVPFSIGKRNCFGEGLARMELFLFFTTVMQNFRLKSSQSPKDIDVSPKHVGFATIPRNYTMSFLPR
test: Inhibition of CYP2A6-mediated coumarin 7-hydroxylation, enzymatic reconstitution assay
Assay type: biochemical
Parameters: made in house
experimental.context: 10-min pre-incubation in the presence of NADPH; read-out: IC50 CYP2A6 Pre-incubation
The following compounds are shown together with reported IC50 values.
Answer as a quantity: numeral, then unit.

# compound, measured.metric, result
data = [
    ("CC#CC#Cc1ccc(C#CC(O)COC(C)=O)s1 (stereo not drawn)", "IC50", "2.12 µM"),
    ("CC#Cc1ccc(C#CC#CC(O)CO)s1 (stereo not drawn)", "IC50", "0.18 µM"),
]

Pending compound:
GET /value?item= CC#Cc1ccc(C#CC#CC(O)COC(C)=O)s1 (stereo not drawn) &field=IC50 returns 2.97 µM
